Data credit: patent US20030148958A1

Listed here are binders together with their documented CRF1R Emax %.
# Target Desc: CRF1R; note: reference of the scale not given here
# Test Name: cell-based or functional assay
Ends that are not written are not given here.
Metric Name: CRF1R Emax % (%)

ZGPPISIDLPLHLLRKMIEIEKQEKEKQQATTNARLLDRV (C-terminal amide) [SEQ ID NO 239]; 80
ZGPPISIDLPFFLLRKMIEIEKQEKEKQQAANNRLLLDTI (C-terminal amide) [SEQ ID NO 223]; 81
ZGPPISIDLPTWLLRKVIEIEKQEKEKQQAANNRLLLDTI (C-terminal amide) [SEQ ID NO 284]; 27.7
DNPSLSIDLPLLLLRTLLELEKTQSQRERAEQNARIFDRV-NH2 [SEQ ID NO 338]; 41.1
ZGPPISIDLPFQLLRKMIEIEKQEKEKQQAANNRLLLATI (not fully specified; C-terminal amide) [SEQ ID NO 250]; 99
ZGPPISIDLPFHLLRKMIEIEKQEKEKQQAANNALLLDTI (C-terminal amide) [SEQ ID NO 228]; 100
ZGPPISIDLPFQLLRKAIEIEKQEKEKQQAANNALLLATI (C-terminal amide) [SEQ ID NO 364]; 27
ZGPPISIDVPFQLLRKVIEIEKQEKEKQQAANNARLLDTI (C-terminal amide) [SEQ ID NO 382]; 8
ZGPPISIDLPYHLLRKVIEIEKQEKEKQQAANNALLLDTI (C-terminal amide) [SEQ ID NO 312]; 62
